Target: human Cot/Tpl2 kinase (Homo sapiens, UniProt P41279)
Construct: human Cot/Tpl2 kinase construct encoding residues 30-398; 6His (N); made in house; host or cells: Sf9 insect cells, baculovirus system (BD Biosciences)
Sequence (P41279 30-398): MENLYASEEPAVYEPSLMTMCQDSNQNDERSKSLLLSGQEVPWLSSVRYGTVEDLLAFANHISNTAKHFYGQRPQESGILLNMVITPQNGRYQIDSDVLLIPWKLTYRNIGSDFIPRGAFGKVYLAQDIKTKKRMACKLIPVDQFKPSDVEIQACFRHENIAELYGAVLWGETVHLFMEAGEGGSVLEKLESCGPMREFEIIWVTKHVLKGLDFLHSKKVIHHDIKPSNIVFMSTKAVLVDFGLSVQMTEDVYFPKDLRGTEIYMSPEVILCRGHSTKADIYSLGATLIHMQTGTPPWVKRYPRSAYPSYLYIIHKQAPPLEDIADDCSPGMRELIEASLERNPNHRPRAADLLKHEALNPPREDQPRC
Assay: Tpl2/Cot kinase assay: GST-MEK1 phosphorylation detected by ELISA (DELFIA Eu)
Format: biochemical
Settings: 0.4 nM Tpl2, 35 nM GST-MEK1, 50 uM ATP, 1 h at 30° C.
observed-property: IC50 (µM)

These recorded examples may help you get a feel for the data.
Cc1nc2ccc(NCc3cnc[nH]3)cc2c(Nc2ccc(F)c(Cl)c2)c1C#N = 19.9
N#Cc1cnc2ccc(NCc3ccccc3)cc2c1Nc1ccc(F)c(Cl)c1 = 0.63
CS(=O)(=O)c1nccc(CNc2cc(Cl)c3ncc(C#N)c(Nc4ccc(F)c(Cl)c4)c3c2)n1 = 0.023
CCc1nc[nH]c1CNc1cc(Br)c2ncc(C#N)c(Nc3ccc(F)c(Cl)c3)c2c1 = 0.0035
CC(C)N1CCCC(n2cc(CNc3cc(Cl)c4ncc(C#N)c(Nc5ccc(F)c(Cl)c5)c4c3)nn2)CC1 (stereo not shown) = 0.0082
N#Cc1cnc2c(Cl)cc(NCc3cn(C4CCC(O)(c5ccccn5)CC4)nn3)cc2c1Nc1ccc(F)c(Cl)c1 (stereo not shown) = 0.02
CN(C)C(=O)c1ccc2cc(CNc3ccc4ncc(C#N)c(Nc5ccc(F)c(Cl)c5)c4c3)n(C)c2c1 = 0.42
N#Cc1cnc2c(C#N)cc(NCc3cccnc3)cc2c1Nc1cccc(Cl)c1 = 0.14
Cc1cc(CNc2cc(C(F)(F)F)c3ncc(C#N)c(Nc4ccc(F)c(Cl)c4)c3c2)oc1C = 8.4
CCNc1cc(Cl)c2ncc(C#N)c(Nc3ccc(F)c(Cl)c3)c2c1 = 1.4

[1] N#Cc1cnc2ccc(NCc3nccn3CC(N)=O)cc2c1Nc1ccc(F)c(Cl)c1
[2] N#Cc1cnc2ccc(NC[C@@H]3CCCN3)cc2c1Nc1ccc(F)c(Cl)c1
-- ask Among 1 and 2 , whose measured IC50 is the smaller figure? Indicate which entry you chose by stating its label.
-- reply 1

====

Molecular target: human Cot/Tpl2 kinase (Homo sapiens)
Construct: human Cot/Tpl2 kinase construct encoding residues 30-398; 6His (N); made in house; host or cells: Sf9 insect cells, baculovirus system (BD Biosciences)
Test: Tpl2/Cot kinase assay: GST-MEK1 phosphorylation detected by ELISA (DELFIA Eu)
Type: biochemical
Conditions: Tpl2/Cot kinase, GST-MEK1 substrate, 50 uM ATP
observed-property: IC50 (nM)

[A] CN(C)CCNC(=O)Cn1cc(CNc2cc(Cl)c3ncc(C#N)c(Nc4ccc(F)c(Cl)c4)c3c2)nn1
[B] CN1CCCC1CCn1cc(CN(Cc2cn(CCC3CCCN3C)nn2)c2cc(Br)c3ncc(C#N)c(Nc4ccc(F)c(Cl)c4)c3c2)nn1 (stereo not shown)
[C] N#Cc1cnc2c(Cl)cc(NCc3cn(CC(=O)Nc4cccnc4)nn3)cc2c1Nc1ccc(F)c(Cl)c1
-- ask Highest to lowest IC50: rank the entries shown above. State the ranking by listing the labels in the requested order.
-- reply B, A, C

====

Target: human Cot/Tpl2 kinase (Homo sapiens, UniProt P41279)
Construct: human Cot/Tpl2 kinase construct encoding residues 30-398; 6His (N); made in house; host or cells: Sf9 insect cells, baculovirus system (BD Biosciences)
Assay: Tpl2/Cot kinase assay: GST-MEK1 phosphorylation detected by ELISA (DELFIA Eu)
Type: biochemical
Conditions: Tpl2/Cot kinase, GST-MEK1 substrate, 50 uM ATP
observed-property: IC50 (nM)

CC(=O)N(CCNc1cc(Cl)c2ncc(C#N)c(Nc3ccc(F)c(Cl)c3)c2c1)Cc1cccnc1 = 58

[a] N#Cc1cnc2c(Cl)cc(NCC3CC3C(=O)O)cc2c1Nc1ccc(F)c(Cl)c1 (stereo not shown)
[b] N#Cc1cnc2c(Br)cc(NCc3cn(C45CC6CC(CC(C6)C4)C5)nn3)cc2c1Nc1ccc(F)c(Cl)c1
[c] N#Cc1cnc2c(Cl)cc(NCc3cn(C4CCOCC4)nn3)cc2c1Nc1ccc(F)c(Cl)c1
-- ask Order these by IC50, descending, and give the full ranking. # the answer lists labels in the order requested
-- reply b, a, c
(b: 1700 nM, a: 220 nM, c: 14 nM)

====

Target: human Cot/Tpl2 kinase (Homo sapiens, UniProt P41279)
Construct: human Cot/Tpl2 kinase construct encoding residues 30-398; 6His (N); made in house; host or cells: Sf9 insect cells, baculovirus system (BD Biosciences)
Experiment: Tpl2/Cot kinase assay: GST-MEK1 phosphorylation detected by ELISA (DELFIA Eu)
Type: biochemical
Settings: Tpl2/Cot kinase, GST-MEK1 substrate, 50 uM ATP, 1 h at 30° C.; Table 2
Experimental: Sf9 cells expressing the kinase were lysed in 50 mM NaPhosphate pH=8; 300 mM NaCl; 5 mM imidazole; 0.1 mM EGTA; 25 mM beta-glycerophosphate; 1% TX-100, 1% glycerol; 6 mM beta-mercaptoethanol and protease inhibitors. […] Tpl2/Cot activity was directly assayed using GST-MEK1 as a substrate. GST-MEK1 phosphorylation on serine residues 217 and 221 was detected by ELISA. […] After a final wash, Eu detection solution was added to each well and the Eu signal was measured in a Wallac Victor^2 Multilabel Counter. […]
observed-property: IC50 (µM)

N#Cc1cnc2c(Cl)cc(NCc3cn(C4CCC(NC5CCCC5)CC4)nn3)cc2c1Nc1ccc(F)c(Cl)c1 (stereo not shown) = 0.017
N#Cc1cnc2c(Cl)cc(NCc3cn(C4CCN(CC(F)(F)C(F)(F)F)CC4)nn3)cc2c1Nc1ccc(F)c(Cl)c1 = 1.04
N#Cc1cnc2c(Cl)cc(NCc3cn(C4CCC(NC5CC5)CC4)nn3)cc2c1Nc1ccc(F)c(Cl)c1 (stereo not shown) = 0.017

[1] N#Cc1cnc2c(Cl)cc(NCc3cn(C4CCCN(CCF)CC4)nn3)cc2c1Nc1ccc(F)c(Cl)c1 (stereo not shown)
[2] CC(C)(C)CC(=O)N1CCN(CCn2cc(CNc3cc(Cl)c4ncc(C#N)c(Nc5ccc(F)c(Cl)c5)c4c3)nn2)CC1
[3] CN(C)CCn1cc(CNc2ccc3ncc(C#N)c(NC4CCCCC4)c3c2)nn1
-- ask Please put the entries in order of rising IC50. Your answer should be the labels, listed in the requested order.
-- reply 1, 2, 3
(1: 0.0091 µM, 2: 0.13 µM, 3: 0.38 µM)

====

Molecular target: human Cot/Tpl2 kinase (Homo sapiens)
Construct: human Cot/Tpl2 kinase construct encoding residues 30-398; 6His (N); made in house; host or cells: Sf9 insect cells, baculovirus system (BD Biosciences)
Experiment: Tpl2/Cot kinase assay: GST-MEK1 phosphorylation detected by ELISA (DELFIA Eu)
Format: biochemical
Details: Table 2; Tpl2/Cot kinase, GST-MEK1 substrate, 50 uM ATP
observed-property: IC50 (nM)

Sample answers from the record:
N#Cc1cnc2c(Br)cc(NCc3nc[nH]n3)cc2c1Nc1ccc(F)c(Cl)c1 = 110
CN1CCC(CCn2cc(CNc3cc(Cl)c4ncc(C#N)c(Nc5ccc(F)c(Cl)c5)c4c3)nn2)CC1 = 38
N#Cc1cnc2c(Cl)cc(NCc3cn(CCOCCOCCO)nn3)cc2c1Nc1ccc(F)c(Cl)c1 = 91
N#Cc1cnc2c(F)cc(NCc3cncn3O)cc2c1Nc1ccc(F)c(Cl)c1 = 200

[I] N#Cc1cnc2c(Cl)cc(NCC(O)CO)cc2c1Nc1ccc(F)c(Cl)c1 (centres unmarked)
[II] N#Cc1cnc2c(Br)cc(NCc3cc(-c4ccncc4)[nH]n3)cc2c1Nc1ccc(F)c(Cl)c1
-- ask Pick one, I or II : lowest reported IC50. Answer format: the label of the selected item.
-- reply I

[I] Cc1[nH]c(-c2cccnc2)nc1CNc1cc(Cl)c2ncc(C#N)c(Nc3ccc(F)c(Cl)c3)c2c1
[II] N#Cc1cnc2c(Cl)cc(NCc3cc[nH]n3)cc2c1Nc1ccc(F)c(Cl)c1
[III] Cc1[nH]c(C2CCCC2)nc1CNc1cc(Cl)c2ncc(C#N)c(Nc3ccc(F)c(Cl)c3)c2c1
[IV] N#Cc1cnc2ccc(NCCN3CCOCC3)cc2c1Nc1ccc(Oc2ccccc2)cc1
-- ask Rank descending by IC50. Answer by listing the labels in the requested order.
-- reply I, III, IV, II
(I: 20600 nM, III: 1900 nM, IV: 150 nM, II: 47 nM)

[P] CN(C)CCn1cc(CNc2cc(Br)c3ncc(C#N)c(Nc4ccc(F)c(Cl)c4)c3c2)nn1
[Q] C=CCn1cnc(CNc2cc(Br)c3ncc(C#N)c(Nc4ccc(F)c(Cl)c4)c3c2)c1
[R] CN1CCN(CCCn2cc(CNc3cc(Cl)c4ncc(C#N)c(Nc5ccc(F)c(Cl)c5)c4c3)nn2)CC1
[S] CC(C)(C)OC(=O)N1CCCN(CCCn2cc(CNc3cc(Cl)c4ncc(C#N)c(Nc5ccc(F)c(Cl)c5)c4c3)nn2)CC1
-- ask Number of compounds to sort: 4. Sort criterion: IC50, ascending. Respond with the label ranking, as requested.
-- reply Q, P, R, S
(Q: 4.8 nM, P: 24 nM, R: 39 nM, S: 120 nM)

[I] CN1CCC(Cn2cc(CNc3cc(Br)c4ncc(C#N)c(Nc5ccc(F)c(Cl)c5)c4c3)nn2)CC1
[II] COCCCNC(=O)CNc1cc(Cl)c2ncc(C#N)c(Nc3ccc(F)c(Cl)c3)c2c1
[III] N#Cc1cnc2c(Cl)cc(NCC(=O)c3ccccc3)cc2c1Nc1ccc(F)c(Cl)c1
[IV] CC(C)(CNc1cc(Cl)c2ncc(C#N)c(Nc3ccc(F)c(Cl)c3)c2c1)N1CCOCC1
[V] CN(C)C(=O)c1cc(NCc2cccnc2)cc2c(Nc3cccc(Cl)c3)c(C#N)cnc12
-- ask Arrange the 5 entries by IC50 so the values rise. # format: label list in the order the request specifies
-- reply I, II, V, III, IV

[1] N#Cc1ccccc1CNc1ccc2ncc(C#N)c(NC3CCCC3)c2c1
[2] N#Cc1cnc2c(O)cc(N)cc2c1Nc1ccc(F)c(Cl)c1
-- ask For the pair 1 and 2 , which entry has the numerically smaller recorded IC50? Identify your selection by its label.
-- reply 1

[1] N#Cc1cnc2ccc(NCc3ccc(S(N)(=O)=O)cc3)cc2c1NC1CCCC1
[2] N#Cc1cnc2c(Br)cc(NCc3cn(CCS(=O)(=O)C4CCCC4)nn3)cc2c1Nc1ccc(F)c(Cl)c1
-- ask Which entry shows the lesser value of IC50 here, 1 or 2 ? Please reply using the label of the selected record.
-- reply 2
(2: 53 nM, 1: 7300 nM)

[A] N#Cc1cnc2c(C(F)(F)F)cc(N)cc2c1Nc1ccc(F)c(Cl)c1
[B] C=Cc1cc(NCc2cnc[nH]2)cc2c(Nc3ccc(F)c(Cl)c3)c(C#N)cnc12
-- ask Which record would sort first by descending IC50, A or B ? When you have decided, please share the label of that item.
-- reply A

[P] CN(C)CC#Cc1ncn(COCc2ccccc2)c1CNc1cc(Cl)c2ncc(C#N)c(Nc3ccc(F)c(Cl)c3)c2c1
[Q] COCc1nc(CNc2cc(Cl)c3ncc(C#N)c(Nc4ccc(F)c(Cl)c4)c3c2)c[nH]1
-- ask Higher IC50 between P and Q ? Choose, then provide that item's label.
-- reply P
(P: 2000 nM, Q: 260 nM)

[A] COCCn1cc(CNc2cc(Br)c3ncc(C#N)c(Nc4ccc(F)c(Cl)c4)c3c2)nn1
[B] CN1CCC(CCn2cc(CNc3cc(Br)c4ncc(C#N)c(Nc5ccc(F)c(Cl)c5)c4c3)nn2)CC1
-- ask Consider A and B . Which of these has its IC50 at a higher number? Lab note: record the label of whichever item you select.
-- reply B
(B: 44 nM, A: 18 nM)
